For each of the compounds below, state its IC50.
Molecular target: r(CGG)12-DGCR8Δ complex
Test: TR-FRET protein displacement assay
Assay type: biochemical
Conditions: disruption of r(CGG)12-DGCR8Δ complex; Table 1; read-out: IC50
Numbers only, in µM.

The compound listed as Cc1c2cc[n+](CCN3CCCCC3)cc2c(C)c2c1[nH]c1ccc(O)cc12 [1a] has a reported IC50 of 13

Now examine the next entry.
The compound listed as Cc1c2cc[n+](C)cc2c(C)c2c1[nH]c1ccc(O)cc12 [1d, elliptinium] has a reported IC50 of 7

---

Biological target: r(CGG)12-DGCR8Δ complex
Experiment: TR-FRET protein displacement assay
Format: biochemical
Conditions: read-out: IC50 for disruption of r(CGG)12-DGCR8Δ complex / inhibition of protein binding
observationType: pIC50
Answers are plain numbers, as −log10 of the molar value.

The compound listed as Cc1c2cc[n+](CCN3CCCCC3)cc2c(C)c2c1[nH]c1ccc(O)cc12 [1a] has a reported pIC50 of 4.92
